Sourced from patent US6124449

Molecular target: TGF-beta1 (hTGF-beta1) (Homo sapiens, UniProt P01137 P01137:279-390)
Sequence (P01137 279-390, one chain of several): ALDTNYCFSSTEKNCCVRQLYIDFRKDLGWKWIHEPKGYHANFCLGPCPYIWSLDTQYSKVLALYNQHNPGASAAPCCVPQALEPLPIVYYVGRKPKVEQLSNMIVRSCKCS
Experiment: cell_activity; MLEC assay
Settings: tags: R&D Systems; biotinylated form (NFTG0) used for BIAcore; chain copies: 2; label: 5'-biotin for BIAcore specificity; proposed double pseudoknot
Experimental: Cells were plated at 10^5/mL in 96-well plates in MEM, 10 mM HEPES and 0.2% FBS. […] After incubation, the cells were washed and harvested with SKATRON filtering units and ^3H-thymidine incorporation in cellular DNA was quantitated by scintillation counting in Ecoscint. Data were plotted and analyzed as described in Park et al. (1990) J. Exp. Med. 171:1073) and Dower et al. (1984) J. Immunol.
Readout Label: Ki

Provide Ki value for the following binder: 40-60 (ssRNA, 2'-F C and U) RNA: GGGAGGACGAUGCGGUUAUGGGCGUCAACACCGCUAUUACAGUUUUCGCCUCCCCCAGACGACUCGCCCGA
0.8 nM
